target_of_assay: IgG (Gammanorm)
test: SPR (Biacore), variant amine-coupled to CM5 chip, Gammanorm as analyte, 1:1 kinetic fit
pKd: −log10 of the molar value.

# binder, pKd
measured = [
    ("Protein L variant pAM235 (domain B1-1; H10, H45, Q60) (protein) SEEEVTIKAHLIFANGSTQTAEFKGTFEKATSEAYAYADTLKKDHGEYTVDVADKGYTLQIKFAGKEKTPEE", 7.38),
    ("Protein L variant pAM249 (domain B1-2; H10, H45, Y60) (protein) SEEEVTIKAHLIFANGSTQTAEFKGTFEKATSEAYAYADTLKKDHGEYTVDVADKGYTLYIKFAGKEKTPEE", 7.54),
    ("Protein L variant pAM260 (domain C3b-2; H10, H45, Y60) (protein) PKEEVTIKVHLIFADGKIQTAEFKGTFEEATAKAYAYADLLAKEHGEYTADLEDGGYTIYIKFAGKETPETPEE", 7.74),
    ("Protein L variant pAM252 (domain B3-2; H10, H45, Y60) (protein) PKEEVTIKAHLIYADGKTQTAEFKGTFEEATAEAYRYADLLAKEHGKYTVDVADKGYTLYIKFAGKEKTPEE", 7.80),
    ("Protein L variant pAM259 (domain C3-2; H10, H45, Y60) (protein) PKEEVTIKVHLIFADGKIQTAEFKGTFEEATAKAYAYANLLAKEHGEYTADLEDGGNTIYIKFAGKETPETPEE", 7.26),
    ("Protein L variant pAM258 (domain C2b-2; H10, H45, Y60) (protein) PKEEVTIKVHLIFADGKTQTAEFKGTFEEATAKAYAYADLLAKEHGEYTADLEDGGYTIYIKFAGKETPETPEE", 7.77),
    ("Protein L variant pAM261 (domain C4-2; H10, H45, Y60) (protein) PKEEVTIKVHLIFADGKTQTAEFKGTFEEATAEAYRYADLLAKVHGEYTADLEDGGYTIYIKFAGKEQPGENPG", 7.92),
]

src = patent US20250196025A1
